// data source = a melting point compilation (Tetko et al.; mined from patent text by program, amines drawn as free bases though some values may be those of a salt)

Value kind: melting point

Solved cases (5 shown):
[[record]]
compound = "C[C@@H](COc1ccc(N2CCN(c3ccncc3)CC2)cc1)CC(=O)OC(C)(C)C"
result = "112 to 113 °C"

[[record]]
compound = "Nc1ccc(Sc2cc(F)cc(F)c2)c(Cl)c1"
result = "156 to 158 °C"

[[record]]
compound = "CC(C)(C)OC(=O)NC1CCCOCC=CC2CC2(C(=O)NS(=O)(=O)C2CC2)NC(=O)C2CC(OC(=O)c3ccc(-c4ccccc4)cc3)CN2C1=O (stereo unspecified)"
result = "160 to 162 °C"

[[record]]
compound = "O=C(O)Cc1nn(CC(=S)Nc2cc(C(F)(F)F)ccc2Br)c(=O)c2ccccc12"
result = "176 to 177 °C"

[[record]]
compound = "CCc1cccc(C)c1CNc1cc(C(=O)NC)nc2c1nc(C)n2C"
result = "236 to 238 °C"


**Query** Bench note: what melting point did O=C1CC2CS(=O)(=O)c3ccccc3C2=NN1c1ccc(Cl)cc1 (stereo unspecified) show?
**Result** 168 to 170 °C

**Query** Bench note: what melting point did CC(C)CNC(=O)c1cccc(-c2ccnc3c(C(=O)c4cccs4)cnn23)c1 show?
**Result** 174 to 177 °C

**Query** Bench note: what melting point did CC(C)Cn1c(C(=O)O)c(-c2ccc(F)cc2)c2cc(OCc3ccccc3)ccc2c1=O show?
**Result** 236 to 237 °C

**Query** Bench note: what melting point did Nc1ccc2oc3c(c2c1)CCC3 show?
**Result** 86.5 to 88.5 °C

**Query** Bench note: what melting point did CCOC(=O)[C@H](Cc1ccc(-c2c(OC)cc(CO)cc2OC)cc1)NC(=O)OC(C)(C)C show?
**Result** 142 to 143 °C

**Query** Bench note: what melting point did CCc1cc(CNc2cccc3ccccc23)c(OC)nc1C show?
**Result** 82 to 83 °C
